System: Danio rerio Tg(wt1b:EGFP) embryo, pronephros
Assay: pronephric angle neck segment to proximal convoluted tubule (mean of left and right), fold change vs DMSO control; higher = larger pronephric angle
Settings: 25 µM; exposure: 24-48 hpf
Where a name gives a salt, the structure may show the parent alone.
Parameter threshold = 1. Response is true when pronephric angle neck segment meets or exceeds it, else false.

{"compound": "CCCCC1=NC2(CCCC2)C(=O)N1Cc1ccc(-c2ccccc2-c2nnn[nH]2)cc1", "class-name": "true"}
{"compound": "CN1[C@@H]2CC[C@H]1C[C@@H](OC(=O)c1c[nH]c3ccccc13)C2 [Tropisetron hydrochloride]", "class-name": "true"}
{"compound": "CCCc1nn(C)c2c(=O)[nH]c(-c3cc(S(=O)(=O)N4CCN(C)CC4)ccc3OCC)nc12", "class-name": "false"}
{"compound": "CCN(CC)CCNC(=O)c1cc(Cl)c(N)cc1OC [Metoclopramide monohydrochloride]", "class-name": "false"}
{"compound": "CC[N+](C)(CC)CCC[n+]1c(-c2ccccc2)c2cc(N)ccc2c2ccc(N)cc21 [Propidium iodide]", "class-name": "false"}

* * *

Tested on: Danio rerio Tg(wt1b:EGFP) embryo, pronephros
Test: fraction of imaged embryos annotated as normal kidney; higher = less nephrotoxic; extreme values may be limits of the assay
Details: 25 µM; exposure: 24-48 hpf
Counter-ions that a name gives are not always drawn.
fraction of imaged embryos annotated as normal kidney listing for selected compounds.
quantity-kind: fraction of imaged embryos annotated as normal kidney

{"compound": "CC1=C(CC(=O)O)c2cc(F)ccc2/C1=C\\c1ccc([S+](C)[O-])cc1 (stereo unspecified) [Sulindac]", "meas-value": 0.667}
{"compound": "NNCCc1ccccc1 [Phenelzine sulfate]", "meas-value": 0.833}
{"compound": "C[C@@H]1CCC[C@H](C)N1NC(=O)c1ccc(Cl)c(S(N)(=O)=O)c1 [Clopamide]", "meas-value": 0.917}
{"compound": "Cc1ccc(NC(=O)c2ccc(CN3CCN(C)CC3)cc2)cc1Nc1nccc(-c2cccnc2)n1 [Imatinib]", "meas-value": 1}
{"compound": "Cc1cccc(Nc2ccccc2C(=O)O)c1C [Mefenamic acid]", "meas-value": 0}
{"compound": "CC1(C)O[C@@H]2C[C@H]3[C@@H]4C[C@H](F)C5=CC(=O)CC[C@]5(C)[C@H]4[C@@H](O)C[C@]3(C)[C@]2(C(=O)CO)O1 [Flurandrenolide]", "meas-value": 0.333}
{"compound": "CCN1CCC[C@H]1CNC(=O)c1c(O)c(Cl)cc(Cl)c1OC [Raclopride]", "meas-value": 0.917}
{"compound": "O=C1c2ccccc2C(=O)C1c1ccccc1 [Phenindione]", "meas-value": 0.75}
{"compound": "C[C@]12C[C@H](O)[C@H]3[C@@H](CCC4=CC(=O)CC[C@@]43C)[C@@H]1CC[C@@H]2C(=O)CO [Corticosterone]", "meas-value": 0.417}
{"compound": "CN1CCCN(C(c2ccccc2)c2ccc(Cl)cc2)CC1 (stereo unspecified) [Homochlorcyclizine dihydrochloride]", "meas-value": 1}
{"compound": "COc1ccc(NS(=O)(=O)c2ccc(N)cc2)nn1 [Sulfamethoxypyridazine]", "meas-value": 1}
{"compound": "OC(CCCN1CCCCC1)(c1ccccc1)c1ccccc1 [Diphenidol hydrochloride]", "meas-value": 0.833}
{"compound": "C#Cc1cccc(Nc2ncnc3cc(OCCOC)c(OCCOC)cc23)c1 [Erlotinib]", "meas-value": 0.833}
{"compound": "C[C@@H]1[C@H](O)[C@@H](C)/C=C/C=C/C=C/C=C/C=C/C=C/C=C/[C@H](O[C@@H]2O[C@H](C)[C@@H](O)[C@H](N)[C@@H]2O)C[C@@H]2O[C@](O)(C[C@@H](O)C[C@@H](O)[C@H](O)CC[C@@H](O)C[C@@H](O)CC(=O)O[C@H]1C)C[C@H](O)[C@H]2C(=O)O [Amphotericin B]", "meas-value": 0}
{"compound": "CC(C)(CO)C(O)C(=O)NCCCO (stereo unspecified) [Panthenol (D)]", "meas-value": 0.75}
{"compound": "CN(CCCCCCCCCCN(C)C(=O)Oc1cccc([N+](C)(C)C)c1)C(=O)Oc1cccc([N+](C)(C)C)c1 [Demecarium bromide]", "meas-value": 1}

* * *

Test system: Danio rerio Tg(wt1b:EGFP) embryo, pronephros
Test: pronephric angle neck segment to proximal convoluted tubule (mean of left and right), fold change vs DMSO control; higher = larger pronephric angle
Settings: 25 µM; exposure: 24-48 hpf
quantity-kind: pronephric angle neck segment

{"compound": "CN/C(=N\\CCSCc1nc[nH]c1C)NC#N [Cimetidine]", "assayed-system": "Danio rerio Tg(wt1b:EGFP) embryo, pronephros", "quantity-kind": "pronephric angle neck segment", "meas-value": 0.926}
{"compound": "O=C(O)c1cc(/N=N/c2ccc(S(=O)(=O)Nc3ccccn3)cc2)ccc1O [Sulfasalazine]", "assayed-system": "Danio rerio Tg(wt1b:EGFP) embryo, pronephros", "quantity-kind": "pronephric angle neck segment", "meas-value": 0.999}
{"compound": "NC(=O)OCC(COC(N)=O)c1ccccc1 [Felbamate]", "assayed-system": "Danio rerio Tg(wt1b:EGFP) embryo, pronephros", "quantity-kind": "pronephric angle neck segment", "meas-value": 1.01}
{"compound": "C=CC[N@@+]12CC[C@@]34c5ccccc5N5/C=C6/[C@H]7C[C@H]8[C@@]9(CC[N@@+]8(CC=C)C/C7=C/CO)c7ccccc7N(/C=C(/[C@@H](C[C@@H]31)/C(=C\\CO)C2)[C@H]54)[C@@H]69 [Alcuronium chloride]", "assayed-system": "Danio rerio Tg(wt1b:EGFP) embryo, pronephros", "quantity-kind": "pronephric angle neck segment", "meas-value": 0.958}

* * *

Tested on: Danio rerio Tg(wt1b:EGFP) embryo, pronephros
Assay: fraction of imaged embryos annotated as normal kidney; higher = less nephrotoxic; extreme values may be limits of the assay
Settings: 25 µM; exposure: 24-48 hpf
Counter-ions that a name gives are not always drawn.
fraction of imaged embryos annotated as normal kidney values, listed per item
quantity-kind: fraction of imaged embryos annotated as normal kidney

{"molecule": "Nc1ccc(S(=O)(=O)Nc2ccc(Cl)nn2)cc1 [Sulfachloropyridazine]", "meas-value": 0.75}
{"molecule": "CC(=O)N[C@@H](CC(C)C)C(=O)O [N-Acetyl-L-leucine]", "meas-value": 0.917}
{"molecule": "Cc1cccc(CN2CCN(C(c3ccccc3)c3ccc(Cl)cc3)CC2)c1 (stereo not drawn) [Meclozine dihydrochloride]", "meas-value": 0.417}
{"molecule": "NS(=O)(=O)c1cc(C(=O)O)cc(N2CCCC2)c1Oc1ccccc1 [Piretanide]", "meas-value": 0.917}
{"molecule": "Cc1nc(=O)c2cc(CN(C)c3ccc(C(=O)N[C@@H](CCC(=O)O)C(=O)O)s3)ccc2[nH]1 [Raltitrexed]", "meas-value": 0.917}
{"molecule": "CC(C)c1nc(CN(C)C(=O)N[C@H](C(=O)N[C@@H](Cc2ccccc2)C[C@H](O)[C@H](Cc2ccccc2)NC(=O)OCc2cncs2)C(C)C)cs1 [Ritonavir]", "meas-value": 1}
{"molecule": "Cc1cc(/C=C/c2ccc3cc(N(C)C)ccc3[n+]2C)c(C)n1-c1ccccc1 [Pyrvinium pamoate]", "meas-value": 0.833}
{"molecule": "N=C(N)N/N=C/c1c(Cl)cccc1Cl [Guanabenz acetate]", "meas-value": 1}
{"molecule": "CC(C)C(=O)Nc1ccc([N+](=O)[O-])c(C(F)(F)F)c1 [Flutamide]", "meas-value": 0.667}
{"molecule": "CC(N/C(=N\\C#N)Nc1ccncc1)C(C)(C)C (stereo not drawn) [Pinacidil]", "meas-value": 0.727}
{"molecule": "Cc1ncc(CO)c(CO)c1O [Pyridoxine hydrochloride]", "meas-value": 1}
{"molecule": "CN(C)CCC=C1c2ccccc2CCc2ccccc21 [Amitryptiline hydrochloride]", "meas-value": 0.917}
{"molecule": "COc1cc2ncnc(Nc3ccc(F)c(Cl)c3)c2cc1OCCCN1CCOCC1 [Gefitinib]", "meas-value": 1}
{"molecule": "CC(C)OC(=O)CCC/C=C\\C[C@@H]1[C@@H](CC[C@@H](O)CCc2ccccc2)[C@H](O)C[C@@H]1O [Latanoprost]", "meas-value": 0.833}
{"molecule": "CN1CCN2c3ncccc3Cc3ccccc3C2C1 (stereo not drawn) [Mirtazapine]", "meas-value": 1}
{"molecule": "NC(=O)c1cccnc1 [Nicotinamide]", "meas-value": 0.909}
{"molecule": "Cc1cccc(C)c1OCC(C)N (stereo not drawn) [Mexiletine hydrochloride]", "meas-value": 0.917}
{"molecule": "O=C(N[C@H](CO)[C@H](O)c1ccc([N+](=O)[O-])cc1)C(Cl)Cl [Chloramphenicol]", "meas-value": 1}

* * *

System: Danio rerio Tg(wt1b:EGFP) embryo, pronephros
Assay: glomerular width (mean of left and right), fold change vs DMSO control; higher = wider glomerulus
Conditions: 25 µM; exposure: 24-48 hpf
Structures can show the parent of a compound that is named as a salt.
The entries below are paired with their reported glomerular width.

{"molecule": "CCC(=O)OCC(=O)[C@@]1(OC(=O)CC)[C@H](C)C[C@H]2[C@H]3[C@H]([C@@H](O)C[C@@]21C)[C@@]1(C)C=CC(=O)C=C1C[C@H]3Cl [Alclometasone dipropionate]", "glomerular width": 1.23}
{"molecule": "CC(=O)OCC(=O)[C@@]1(O)CC[C@H]2[C@@H]3CCC4=CC(=O)C=C[C@]4(C)[C@@]3(F)[C@@H](O)C[C@@]21C [Isoflupredone acetate]", "glomerular width": 1.21}
{"molecule": "CN1C(C)(C)CCCC1(C)C [Pempidine tartrate]", "glomerular width": 1}
